meta.source: patent US20250332173A1

Tested on: HTT
Assay: HiBiT protein abundance assay, HTT HiBiT K562 cell line
Assay type: cell-based, human
Conditions: HiBiT K562 cell line, 24 hours, top dose 10 μM; read-out: Effect on protein abundance, HTT (IC50 category)
# IC50 per entry

Use the examples below as a reference point.
1) Cc1cn2cc(-c3ccc4c(=O)n(C5CCNC6(CC6)C5)cnc4c3)cc(F)c2n1 (centres unmarked) [Compound 236] :: 100 to 1000 nM
2) Cc1cn2cc(-c3cc(F)c4c(=O)n([C@H]5CCNC[C@@H]5F)cnc4c3)cc(F)c2n1 (relative stereo) [Compound 341] :: 1000 to 10000 nM
3) Cc1cn2cc(-c3ncc4c(=O)n(C5CCNC5)ccc4n3)c(O)c(C)c2n1 (centres unmarked) [Compound 1227] :: > 10000 nM
4) CCc1cn(C2CCNCC2)c(=O)c2c(F)cc(-c3cc(F)c4nc(C)cn4c3)cc12 [Compound 558] :: 100 to 1000 nM
5) Cc1cn2cc(-c3cc(F)c4c(=O)n(C5CCCNCC5)cnc4c3)cc(F)c2n1 (centres unmarked) [Compound 353] :: 100 to 1000 nM
6) Cc1cn2cc(-c3ccc4c(c3)CCN(C3CCNCC3)C4=O)cc(F)c2n1 [Compound 247] :: 100 to 1000 nM
7) Cc1cn2cc(-c3ccc4c(=O)n([C@@H]5CCCNC5)ccc4c3)cc(F)c2n1 (single isomer, unassigned) [Compound 403] :: 1000 to 10000 nM
8) Cc1c(O)c(-c2ncc3c(=O)n(C4CCNCC4)cc(C)c3n2)cc2cn(C)nc12 [Compound 1191] :: 1000 to 10000 nM
9) Cc1cn2cc(-c3ccc4c(=O)n(C5CCNCC5)cnc4c3)cc(C)c2n1 [Compound 292] :: 100 to 1000 nM
10) Cc1cc(-c2ccc3c(=O)n(C4CCNCC4)cnc3c2F)cc2cn(C)nc12 [Compound 234] :: 1000 to 10000 nM

QUERY: Please report the recorded IC50 for Cc1cn2cc(-c3ccc4c(=O)n(C5CCNC5)cc(C)c4c3)cc(F)c2n1 (centres unmarked) [Compound 441] .
RESULT: 1000 to 10000 nM

QUERY: Please report the recorded IC50 for CNc1cc(-c2cc(C)c3nc(C)cn3n2)cc2ccn([C@@H]3CCNC3)c(=O)c12 [Compound 648] .
RESULT: > 10000 nM

QUERY: Please report the recorded IC50 for Cc1cn2nc(-c3ccc4c(c3)CCN(C3CCNC3)C4=O)cc(C)c2n1 (centres unmarked) [Compound 269] .
RESULT: > 10000 nM
